- tested-system: T1, Human MuSK (R&D Systems, cat. 10189-MK, histidine tag) (human, UniProt O15146 24-495)
- T1 construct: Bought protein; also called human monomeric MuSK-6xhis; not shown: histidine tag (6xhis)
- T1 sequence: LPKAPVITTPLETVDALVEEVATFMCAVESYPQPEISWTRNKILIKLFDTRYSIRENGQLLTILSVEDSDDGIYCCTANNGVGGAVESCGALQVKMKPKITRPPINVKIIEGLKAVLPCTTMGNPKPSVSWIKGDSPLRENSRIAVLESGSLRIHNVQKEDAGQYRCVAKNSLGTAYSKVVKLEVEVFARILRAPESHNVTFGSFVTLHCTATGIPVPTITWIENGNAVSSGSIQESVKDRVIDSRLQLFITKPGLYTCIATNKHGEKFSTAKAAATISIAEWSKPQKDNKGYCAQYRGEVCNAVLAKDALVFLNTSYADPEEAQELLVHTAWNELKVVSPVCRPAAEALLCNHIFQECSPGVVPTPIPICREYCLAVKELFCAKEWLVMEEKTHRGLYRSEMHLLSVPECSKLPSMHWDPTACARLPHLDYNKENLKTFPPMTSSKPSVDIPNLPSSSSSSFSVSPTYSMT
- assay-summary: SPR (Biacore), antibody captured on anti-hFc chip; 1.25 nM; dissociation pH 5.5
Form field: koff (one value per entry).
Write it as a number; the unit s⁻¹ goes unstated.

// solved cases for koff follow
binder	koff / s⁻¹
3D9b (antibody, human IgG1, kappa, L234A L235A, V domains shown) VH: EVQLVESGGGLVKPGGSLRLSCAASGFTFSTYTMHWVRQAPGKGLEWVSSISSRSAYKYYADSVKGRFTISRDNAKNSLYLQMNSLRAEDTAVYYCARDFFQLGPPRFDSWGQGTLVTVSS VL: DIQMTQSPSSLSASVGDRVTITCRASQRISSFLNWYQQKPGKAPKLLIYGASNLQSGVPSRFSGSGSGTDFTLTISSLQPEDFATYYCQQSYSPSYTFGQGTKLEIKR	3e-05
4D3 (antibody, human IgG1, kappa, L234A L235A, V domains shown) VH: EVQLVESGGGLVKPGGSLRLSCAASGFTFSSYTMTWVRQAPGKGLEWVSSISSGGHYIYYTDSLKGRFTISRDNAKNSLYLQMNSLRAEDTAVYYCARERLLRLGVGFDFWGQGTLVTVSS VL: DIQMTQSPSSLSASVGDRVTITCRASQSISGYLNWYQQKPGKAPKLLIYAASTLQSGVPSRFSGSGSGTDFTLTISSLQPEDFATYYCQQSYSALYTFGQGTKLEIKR	0.00016
3D10a (antibody, human IgG1, kappa, L234A L235A, V domains shown) VH: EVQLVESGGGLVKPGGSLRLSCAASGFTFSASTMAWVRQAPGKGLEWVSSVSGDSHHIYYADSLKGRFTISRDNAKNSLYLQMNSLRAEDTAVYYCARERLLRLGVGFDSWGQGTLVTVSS VL: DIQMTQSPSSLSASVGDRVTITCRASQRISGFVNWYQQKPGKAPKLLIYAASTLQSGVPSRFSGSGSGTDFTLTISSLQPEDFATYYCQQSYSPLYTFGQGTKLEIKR	7e-05

Pending binder:
Suppose we examine the binder 3F6c (antibody, human IgG1, kappa, L234A L235A, V domains shown) VH: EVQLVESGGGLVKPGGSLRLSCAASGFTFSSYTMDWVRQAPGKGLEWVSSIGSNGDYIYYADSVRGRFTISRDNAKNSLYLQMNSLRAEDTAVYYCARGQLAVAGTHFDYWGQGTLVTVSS VL: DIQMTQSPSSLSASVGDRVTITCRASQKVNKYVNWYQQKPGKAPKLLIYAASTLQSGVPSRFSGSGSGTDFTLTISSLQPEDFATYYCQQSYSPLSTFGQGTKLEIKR ; what koff value has been reported?
0.00018
